assay: amyloid nucleation score (Sup35N fusion, yeast selection) (log enrichment); library NNK2; higher = more nucleation; inactive = no reads after selection;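 note: zero at mode of non-aggregating sequences after 7 days selection at 30°C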
Classify by measured amyloid nucleation score: satisfied if it is equal to or exceeds -0.3, not satisfied if it is smaller.

[[record]]
substance = "GFDLAWSWIPFSRWFALLVN"
answer_label = "not satisfied"

[[record]]
substance = "KQLFSLISYVG"
answer_label = "not satisfied"

[[record]]
substance = "LANYYFYYKDDVWQVMLWCT"
answer_label = "not satisfied"

[[record]]
substance = "VMGYGKRLMSHLGMKSRTRL"
answer_label = "satisfied"

[[record]]
substance = "RDGYRSGYAESMVGVWFRLK"
answer_label = "satisfied"

[[record]]
substance = "YLVPFWVVDCFDGLD"
answer_label = "satisfied"

[[record]]
substance = "RMDVSYLAFVWSHN"
answer_label = "satisfied"

[[record]]
substance = "FMSVFTSAFLISHIMLV"
answer_label = "satisfied"

[[record]]
substance = "YGRLECISWCPISIHCGGAR"
answer_label = "satisfied"

[[record]]
substance = "TFNRFFRCSVFAFRA"
answer_label = "satisfied"

[[record]]
substance = "SWNTVVFSGKDNSILGVLAQ"
answer_label = "satisfied"

[[record]]
substance = "TDCVKTRPCGRLVKIPLYME"
answer_label = "not satisfied"

[[record]]
substance = "TTRYANWNMNINLGL"
answer_label = "satisfied"

[[record]]
substance = "NAQSRVLAEETGLSNPPIML"
answer_label = "not satisfied"


* * *

assay: amyloid nucleation score (Sup35N fusion, yeast selection) (log enrichment); library NNK2; higher = more nucleation; inactive = no reads after selection
amyloid nucleation score values for the substances below.
measurement-type: amyloid nucleation score

[[record]]
substance = "VYTRMKITVGFKYLYN"
measurement_type = "amyloid nucleation score"
recorded_result = 1.24

[[record]]
substance = "HFTYGSSFIL"
measurement_type = "amyloid nucleation score"
recorded_result = 3.53

[[record]]
substance = "VGLSPSSASTHLRN"
measurement_type = "amyloid nucleation score"
recorded_result = 1.07

[[record]]
substance = "NTRGWDAGS"
measurement_type = "amyloid nucleation score"
recorded_result = 1.08

[[record]]
substance = "ESRGSCSIKNYRLVWDC"
measurement_type = "amyloid nucleation score"
recorded_result = -0.451

[[record]]
substance = "DYRMCI"
measurement_type = "amyloid nucleation score"
recorded_result = 0.926

[[record]]
substance = "ILTIALVRFSLSRWRLPWPY"
measurement_type = "amyloid nucleation score"
recorded_result = 1.36

[[record]]
substance = "LCSLDSMPHSYITCSAKRLI"
measurement_type = "amyloid nucleation score"
recorded_result = -0.443

[[record]]
substance = "IRKALNASVLKLT"
measurement_type = "amyloid nucleation score"
recorded_result = 1.1

[[record]]
substance = "TMSFFLGSLEVL"
measurement_type = "amyloid nucleation score"
recorded_result = -1.09

[[record]]
substance = "FGFVTKYFMGV"
measurement_type = "amyloid nucleation score"
recorded_result = 1.96

[[record]]
substance = "RYHWEVLK"
measurement_type = "amyloid nucleation score"
recorded_result = 0.082

[[record]]
substance = "VHLPCGYLKFRGLMYWRREL"
measurement_type = "amyloid nucleation score"
recorded_result = 0.479

[[record]]
substance = "YLSAAVKTEVV"
measurement_type = "amyloid nucleation score"
recorded_result = 0.619

[[record]]
substance = "DISELDVCFL"
measurement_type = "amyloid nucleation score"
recorded_result = -0.287

[[record]]
substance = "RFSCLSELSFLYFGSH"
measurement_type = "amyloid nucleation score"
recorded_result = 5.06

[[record]]
substance = "GNVLTVIKAKDGS"
measurement_type = "amyloid nucleation score"
recorded_result = -0.606

[[record]]
substance = "RGGSIIYHALVRVVFFLSVY"
measurement_type = "amyloid nucleation score"
recorded_result = -1.01

[[record]]
substance = "SIWYLGGC"
measurement_type = "amyloid nucleation score"
recorded_result = -0.02

[[record]]
substance = "RFRRSVFMLMHGWRSTVFIV"
measurement_type = "amyloid nucleation score"
recorded_result = 1.07

[[record]]
substance = "VNFRVGCLVSYMNVK"
measurement_type = "amyloid nucleation score"
recorded_result = 2.6

[[record]]
substance = "HSTVSLQSGRMNVVASGVIH"
measurement_type = "amyloid nucleation score"
recorded_result = 1.62

[[record]]
substance = "FRSNYVKAFRYLYVGLVVNL"
measurement_type = "amyloid nucleation score"
recorded_result = -0.505

[[record]]
substance = "IRSKSWVVDTQFRPIDSLLV"
measurement_type = "amyloid nucleation score"
recorded_result = 0.646

[[record]]
substance = "PGIMNVPS"
measurement_type = "amyloid nucleation score"
recorded_result = 0.456

[[record]]
substance = "SCCCYMIGKGIPQM"
measurement_type = "amyloid nucleation score"
recorded_result = 0.394

[[record]]
substance = "WHFSRSWDPKFWRRAHSWWE"
measurement_type = "amyloid nucleation score"
recorded_result = 0.276

[[record]]
substance = "SFTAHTSIHASNLYTDLLLC"
measurement_type = "amyloid nucleation score"
recorded_result = 3.41

[[record]]
substance = "RSCFPCSCK"
measurement_type = "amyloid nucleation score"
recorded_result = 0.472

[[record]]
substance = "MDFSSLWGLHFVLCCVSWGR"
measurement_type = "amyloid nucleation score"
recorded_result = 0.256

[[record]]
substance = "VVHQVSVGHCWVSR"
measurement_type = "amyloid nucleation score"
recorded_result = 0.683

[[record]]
substance = "HDGCGPCSHWTGSQFTFRSS"
measurement_type = "amyloid nucleation score"
recorded_result = 2.2

[[record]]
substance = "YFLKSYGAFSMFQM"
measurement_type = "amyloid nucleation score"
recorded_result = 3.19


* * *

test: amyloid nucleation score (Sup35N fusion, yeast selection) (log enrichment); library NNK2; higher = more nucleation; inactive = no reads after selection
Rule: satisfied for amyloid nucleation score not less than 0.7, not satisfied for anything less.

[[record]]
substance = "RNGVLTEARHLSVSGEERRV"
answer_label = "not satisfied"

[[record]]
substance = "NGTSLTMTYIRKLAFRGLEK"
answer_label = "not satisfied"

[[record]]
substance = "DSVCYNFNFNTF"
answer_label = "satisfied"

[[record]]
substance = "CGVPNYQLVVEWMMTNRVGN"
answer_label = "not satisfied"

[[record]]
substance = "VMFVTSV"
answer_label = "not satisfied"

[[record]]
substance = "SVGYWTVDSVTSVATPLFLA"
answer_label = "not satisfied"

[[record]]
substance = "HMSVGNFLIPLCITMLRGIG"
answer_label = "not satisfied"

[[record]]
substance = "YVFSIYGPFLLVEGLSTPFR"
answer_label = "satisfied"

[[record]]
substance = "GRKISNCCQCWCHGL"
answer_label = "satisfied"

[[record]]
substance = "ISGTHLCSRFYIRYALCGLK"
answer_label = "satisfied"

[[record]]
substance = "REGPCGELGELPVLKRRGKH"
answer_label = "satisfied"

[[record]]
substance = "WVNIYADLRLKVVAGNCCNV"
answer_label = "satisfied"

[[record]]
substance = "VLDFLVSCADYSWSLNNCES"
answer_label = "not satisfied"

[[record]]
substance = "LALCREWVTAGSGSFYLDGP"
answer_label = "not satisfied"

[[record]]
substance = "SDFIPGKMCLNCLWWFVPTR"
answer_label = "not satisfied"

[[record]]
substance = "SDTSVRGLLLEVCRWSGWVA"
answer_label = "satisfied"

[[record]]
substance = "WILVGFIIGTKWVSRPTTDC"
answer_label = "satisfied"

[[record]]
substance = "QNNKILFWQ"
answer_label = "not satisfied"

[[record]]
substance = "ILKGNNSS"
answer_label = "not satisfied"

[[record]]
substance = "SVLCEGTPEETTFLSDRLSG"
answer_label = "satisfied"

[[record]]
substance = "WLVKLSGDMF"
answer_label = "satisfied"

[[record]]
substance = "PTLVLKKAVEPTQENGSLTV"
answer_label = "satisfied"

[[record]]
substance = "CHSNKSCRSHIEEI"
answer_label = "not satisfied"

[[record]]
substance = "DYYRPIIGH"
answer_label = "not satisfied"

[[record]]
substance = "NGVKEYLGNTSWKCTNRA"
answer_label = "not satisfied"

[[record]]
substance = "MTFENFSSSHSWTDLLFLFI"
answer_label = "satisfied"

[[record]]
substance = "SGLEQRGMFRRKNLPIKWCL"
answer_label = "satisfied"

[[record]]
substance = "NDMVRAISRKGIVSIHRRTR"
answer_label = "satisfied"

[[record]]
substance = "AVGNNN"
answer_label = "not satisfied"

[[record]]
substance = "CRSKASSSIRIPT"
answer_label = "not satisfied"

[[record]]
substance = "LFVCMTLGYSLGKSHFDNGS"
answer_label = "satisfied"

[[record]]
substance = "PSWSAKTCACWNKAYPIVEI"
answer_label = "not satisfied"

[[record]]
substance = "MGGNLCVPRTLYSAIWLLSR"
answer_label = "not satisfied"

[[record]]
substance = "FGCNSSGWNVKIPSGGLGNE"
answer_label = "not satisfied"

[[record]]
substance = "GVIWTRAVANCIVLSGMS"
answer_label = "not satisfied"

[[record]]
substance = "IRFANVPSRNKFH"
answer_label = "not satisfied"

[[record]]
substance = "TAVVLTTGLHVIQVLWHN"
answer_label = "satisfied"

[[record]]
substance = "KNNTADWWIRSNSERYRN"
answer_label = "not satisfied"

[[record]]
substance = "NSNFRLTCTFSSMHYKLARG"
answer_label = "satisfied"

[[record]]
substance = "DICNWHLYDNCLSICSGYR"
answer_label = "satisfied"

[[record]]
substance = "TVTVDIFSKEWTGGTNFCDI"
answer_label = "not satisfied"

[[record]]
substance = "RARLKTMRPGSCSRARGWCG"
answer_label = "satisfied"

[[record]]
substance = "VPIKGHNRHMMNYNSEKAGS"
answer_label = "not satisfied"

[[record]]
substance = "SLPDRKIKWESGGP"
answer_label = "not satisfied"

[[record]]
substance = "VTIIVLPANVMLMWVFCYMY"
answer_label = "not satisfied"

[[record]]
substance = "HSPNCYKMSGRFLCD"
answer_label = "not satisfied"

[[record]]
substance = "FSSNTKSNKRIDV"
answer_label = "not satisfied"

[[record]]
substance = "LYDIDWRFRHKDAHQCKVDR"
answer_label = "not satisfied"

[[record]]
substance = "FHDNVTQFFISISAKIYKA"
answer_label = "satisfied"

[[record]]
substance = "QSIRFVFLPYELGTYHGDEG"
answer_label = "not satisfied"

[[record]]
substance = "LMTSYLRSPDSAPETLRE"
answer_label = "not satisfied"

[[record]]
substance = "FTYRPISRNM"
answer_label = "satisfied"

[[record]]
substance = "RLRMSMIISLINLRLCGLML"
answer_label = "satisfied"

[[record]]
substance = "DRGYKSYGG"
answer_label = "satisfied"

[[record]]
substance = "FYYLWWDSFRIVISMR"
answer_label = "not satisfied"

[[record]]
substance = "GAIDLMDALRCPAKTDTR"
answer_label = "satisfied"

[[record]]
substance = "HSSGCYF"
answer_label = "not satisfied"

[[record]]
substance = "ERNLLRNSDDMD"
answer_label = "not satisfied"

[[record]]
substance = "DFILGYVDS"
answer_label = "not satisfied"

[[record]]
substance = "YSGWFFCNFISLWV"
answer_label = "satisfied"

